Value source: PubChem BioAssay (NCI)

System: OVCAR-3 ovarian
Test: NCI-60 one-dose screen, 48 h (100 = growth as untreated, 0 = no growth, -100 = all killed)
Details: 10 µM unless noted
Compounds without any hit were thinned out: in the full panel of roughly 83,000, 20% have a hit.
Measured quantity: growth (%)
Write down the numeric answer in % and omit the unit.

Please review the following examples before continuing.
- Molecule: "O=C(c1c(F)ccc(NS(=O)(=O)N2CC[C@@H](F)C2)c1F)c1c[nH]c2ncc(-c3cnc(C4CC4)nc3)cc12"
  Assay target: "OVCAR-3 ovarian"
  growth, %: 69.4
- Molecule: "O=C(NO)c1ccc(Cn2c(=O)n(-c3ccccc3F)c(=O)c3ccccc32)cc1"
  Assay target: "OVCAR-3 ovarian"
  growth, %: -17.8
- Molecule: "Cc1c(N)ccc(-c2ccc(N)c(C)c2S(=O)(=O)O)c1S(=O)(=O)O"
  Assay target: "OVCAR-3 ovarian"
  growth, %: 124

Notebook: `Cn1ccnc1C(=O)/C=C/c1ccc(CC(=O)Nc2ccc(S(F)(F)(F)(F)F)cc2)cc1` , growth read as 6.7

Item: `O=C(NOCCO)c1cc(CN2OCCCC2=O)c(F)c(F)c1Nc1ccc(I)cc1F` | growth: 103

growth reported for this molecule `O=C(COc1ccc(/C=C2\Cc3ccc(Cl)cc3C2=O)cc1)Nc1nccs1` : 103

What the record says about `Cn1ncc(Cl)c1-c1cc(C(=O)N[C@H](CN)Cc2ccc(F)c(F)c2)oc1Cl` : growth is 18.2

In plain terms, `COc1cc2ncnc(Nc3ccc(F)c(Cl)c3)c2cc1NC(=O)/C=C/CN1CCCCC1` has a documented growth of -83.2

growth measured on `Cc1ccc(-c2nc3ccc(Cl)cn3c2NC2CCCCC2)o1` = 89.7

Entry `Cc1cccc(Cl)c1NC(=O)c1cnc(Nc2cc(N3CCOCC3)cc(S(C)(=O)=O)c2)s1` ; growth = 32.1

Entry `COc1ccc(C(=O)N2c3ccccc3Sc3ccccc32)c(F)c1` ; growth = -7.19
